These measurements were taken from the supplement of paper PMC4862054.

Consider the following compounds and their measured normalised viability readings.
System: CAL-51
Experiment: normalised viability (% of control), CellTiter-Blue; higher = more viable cells (about 100 = DMSO control)
Conditions: incubation time: 72 h
# do not omit the unit; it follows the number

Past entries and their recorded results:
- compound: "C[C@]12C=CC(=O)C=C1CC[C@@H]1[C@@H]2C(=O)C[C@@]2(C)[C@H]1CC[C@]2(O)C(=O)CO [Prednisone] (1000 nM)"
  target-under-test: "CAL-51"
  reported-result: "93.1%"
- compound: "Cn1nnc2c(C(N)=O)ncn2c1=O [Temozolomide] (1000 nM)"
  target-under-test: "CAL-51"
  reported-result: "89.7%"
- compound: "CC/C(=C(\\c1ccccc1)c1ccc(OCCN(C)C)cc1)c1ccccc1 [Tamoxifen] (1000 nM)"
  target-under-test: "CAL-51"
  reported-result: "78.4%"
- compound: "NC1(c2ccc(-c3nc4ccn5c(=O)[nH]nc5c4cc3-c3ccccc3)cc2)CCC1 [MK-2206] (100 nM)"
  target-under-test: "CAL-51"
  reported-result: "100%"
- compound: "Cc1c(N)nc([C@H](CC(N)=O)NC[C@H](N)C(N)=O)nc1C(=O)N[C@H](C(=O)N[C@H](C)[C@@H](O)[C@H](C)C(=O)N[C@H](C(=O)NCCc1nc(-c2nc(C(=O)NCCC[S+](C)C)cs2)cs1)[C@@H](C)O)[C@@H](OC1OC(CO)C(O)C(O)C1OC1OC(CO)C(O)C(OC(N)=O)C1O)c1cnc[nH]1 (some centres not stated) [Bleomycin] (1000 nM)"
  target-under-test: "CAL-51"
  reported-result: "105%"

stdin: Look up normalised viability: O=C(c1cc(Cc2n[nH]c(=O)c3ccccc23)ccc1F)N1CCN(C(=O)C2CC2)CC1 [Olaparib] (1000 nM)
stdout: 88.6%

stdin: Look up normalised viability: NC(=O)c1cccc2cn(-c3ccc([C@@H]4CCCNC4)cc3)nc12 [MK-4827] (1000 nM)
stdout: 90.8%

----------
System: DU-4475
Experiment: normalised viability (% of control), CellTiter-Blue; higher = more viable cells (about 100 = DMSO control)
Conditions: incubation time: 72 h
measurement-type: normalised viability (%)
Enter your answer as a number in %; do not include the unit.

Past entries and their recorded results:
- compound: "Nc1nc(Cl)nc2c1ncn2[C@@H]1O[C@H](CO)[C@@H](O)[C@@H]1F [Clofarabine] (3000 nM)"
  units: "%"
  normalised viability: 19.6
- compound: "Cc1cc2c(F)c(Oc3ncnn4cc(OC[C@@H](C)O)c(C)c34)ccc2[nH]1 [Brivanib] (300 nM)"
  units: "%"
  normalised viability: 98.9

stdin: Look up normalised viability: C[C@@H](CN1CC(=O)NC(=O)C1)N1CC(=O)NC(=O)C1 [Dexrazoxane] (3000 nM)
stdout: 92.8

----------
Test system: SK-BR-3
Settings: 72 h
# label = t if EC50, CellTiter-Glo < 7 nM else f

# example entries with known answers
- compound: "NC1(c2ccc(-c3nc4ccn5c(=O)[nH]nc5c4cc3-c3ccccc3)cc2)CCC1 [MK-2206]"
  class-name: "f"
- compound: "CC[C@H](CC#N)OC(=O)N[C@@H](C)c1cccc(NC(=O)Nc2ccc(-c3cnco3)c(OC)c2)c1 [AVN944]"
  class-name: "f"
- compound: "COc1cc(Nc2ncc(F)c(Nc3ccc4c(n3)N(COP(=O)(O)O)C(=O)C(C)(C)O4)n2)cc(OC)c1OC [Fostamatinib]"
  class-name: "f"
- compound: "Cc1c(N)nc([C@H](CC(N)=O)NC[C@H](N)C(N)=O)nc1C(=O)N[C@H](C(=O)N[C@H](C)[C@@H](O)[C@H](C)C(=O)N[C@H](C(=O)NCCc1nc(-c2nc(C(=O)NCCC[S+](C)C)cs2)cs1)[C@@H](C)O)[C@@H](OC1OC(CO)C(O)C(O)C1OC1OC(CO)C(O)C(OC(N)=O)C1O)c1cnc[nH]1 (stereo partly specified) [Bleomycin]"
  class-name: "f"

Here's the next entry for you.
stdin: # strict comparison: is reported EC50, CellTiter-Glo < 7 nM? input = CO[C@H]1C[C@@H]2CC[C@@H](C)[C@@](O)(O2)C(=O)C(=O)N2CCCC[C@H]2C(=O)O[C@H]([C@H](C)C[C@@H]2CC[C@@H](O)[C@H](OC)C2)CC(=O)[C@H](C)/C=C(\C)[C@@H](O)[C@@H](OC)C(=O)[C@H](C)C[C@H](C)/C=C/C=C/C=C/1C [Sirolimus]
stdout: t
